# TARGET ENTITY: wild-type PRC2 enzyme (EZH2 WT) (Homo sapiens)
# ASSAY NOTES: PRC2 enzyme assay on peptide substrate, wild-type EZH2
Answer each item with its documented IC50.

Consider the following illustrative entries.
COMPOUND	RESULT
COc1c(CNC(=O)c2ccc(C(C)Oc3ccccc3)c(Cl)c2)c(C)nn1C (stereo not shown) [compound 2]	> 50 µM
Cc1[nH]n(C)c(=O)c1CNC(=O)c1ccc(C(C)Oc2ccccc2)c(Cl)c1 (stereo not shown) [compound 3]	> 50 µM
Cc1cc(C)c(CNC(=O)c2cc(Cl)c(C(C)Oc3ccccc3)cc2C)c(=O)[nH]1 (stereo not shown) [compound 12]	0.1 to 1 µM
COc1nn(C)c(C)c1CNC(=O)c1cc(Cl)c(Oc2cccc(-c3ccnnc3)c2C#N)cc1C [compound 17]	> 50 µM

Could you tell me IC50 for each of these compounds? They are listed below.
1. CCN(c1cc(-c2ccc(OCCOC)cc2)cc(C(=O)NC2CC(C)(C)NC(C)(C)C2)c1C)C1CCOCC1 [compound 34]
2. Cc1cc(=O)c(CNC(=O)c2ccc(Oc3cccc(-c4ccnnc4)c3C#N)c(Cl)c2)c(C)[nH]1 [compound 13]
3. Cc1cc(Oc2cccc(-c3ccnnc3)c2C#N)c(Cl)cc1C(=O)NCc1c(C)n(C)[nH]c1=O [compound 18]
4. Cc1cc(=O)c(CNC(=O)c2cc(Cl)c(C(C)Oc3ccccc3)cc2C)c(C)[nH]1 (stereo not shown) [compound 11]
5. Cc1cc(C)c(CNC(=O)c2ccc(C(C)Oc3ccccc3)cc2C)c(=O)[nH]1 (stereo not shown) [compound 5]
6. CCC(C)n1cc(C)c2c(C(=O)NCc3c(C)[nH]c(C)cc3=O)cc(-c3ccc(N4CCNCC4)nc3)cc21 (stereo not shown) [compound 25]
7. CCN(c1cc(-c2ccc(OCCOC)cc2)cc(C(=O)NC2CC(C)(C)NC(C)(C)C2)c1C)[C@H]1CC[C@H](N(C)C)CC1 [compound 33]

1: > 50 µM; 2: 10 to 50 µM; 3: 1 to 10 µM; 4: 10 to 50 µM; 5: 0.1 to 1 µM; 6: < 0.1 µM; 7: 10 to 50 µM

====

# TARGET ENTITY: wild-type PRC2 enzyme (EZH2 WT) (Homo sapiens)
# ASSAY NOTES: PRC2 enzyme assay on peptide substrate, wild-type EZH2
# CONDITION: EZH2 WT IC50 (μM), wild-type PRC2 enzyme, H3K27me0 peptide substrate
QUANTITY KIND: IC50

COMPOUND	RESULT
COc1nn(C)c(C)c1CNC(=O)c1c(C)n(C(C)C2CCOCC2)c2ccccc12 (centres unmarked)	> 50 µM

As a next step, examine the compound that follows.
Which IC50 is listed for Cc1c(CNC(=O)c2c(C)n(C(C)C3CCOCC3)c3ccccc23)c(=O)[nH]n1C (centres unmarked) ?
> 50 µM

====

# TARGET ENTITY: Y641 mutant PRC2 enzyme (EZH2 Y641) (Homo sapiens, UniProt Q15910, Y641F)
# Sequence (Q15910 whole entry Y641F): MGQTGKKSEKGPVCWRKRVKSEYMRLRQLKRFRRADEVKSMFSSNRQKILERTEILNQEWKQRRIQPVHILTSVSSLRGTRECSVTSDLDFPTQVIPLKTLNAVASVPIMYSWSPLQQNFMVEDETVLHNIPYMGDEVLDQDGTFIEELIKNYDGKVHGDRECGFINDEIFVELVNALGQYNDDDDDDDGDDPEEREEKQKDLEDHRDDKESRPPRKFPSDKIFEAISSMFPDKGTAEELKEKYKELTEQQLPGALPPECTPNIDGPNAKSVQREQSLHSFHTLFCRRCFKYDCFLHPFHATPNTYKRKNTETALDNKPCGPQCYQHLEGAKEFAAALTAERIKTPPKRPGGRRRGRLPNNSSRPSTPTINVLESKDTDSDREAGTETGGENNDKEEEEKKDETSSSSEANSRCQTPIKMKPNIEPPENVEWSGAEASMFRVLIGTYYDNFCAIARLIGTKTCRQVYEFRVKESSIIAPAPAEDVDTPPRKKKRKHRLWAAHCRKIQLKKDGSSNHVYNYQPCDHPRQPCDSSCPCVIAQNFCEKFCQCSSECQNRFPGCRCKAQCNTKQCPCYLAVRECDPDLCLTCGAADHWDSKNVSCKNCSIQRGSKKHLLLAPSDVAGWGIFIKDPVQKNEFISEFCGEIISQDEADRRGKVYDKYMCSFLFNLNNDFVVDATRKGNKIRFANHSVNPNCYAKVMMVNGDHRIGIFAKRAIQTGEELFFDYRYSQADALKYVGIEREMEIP
# Sequence (O75530 whole entry partner): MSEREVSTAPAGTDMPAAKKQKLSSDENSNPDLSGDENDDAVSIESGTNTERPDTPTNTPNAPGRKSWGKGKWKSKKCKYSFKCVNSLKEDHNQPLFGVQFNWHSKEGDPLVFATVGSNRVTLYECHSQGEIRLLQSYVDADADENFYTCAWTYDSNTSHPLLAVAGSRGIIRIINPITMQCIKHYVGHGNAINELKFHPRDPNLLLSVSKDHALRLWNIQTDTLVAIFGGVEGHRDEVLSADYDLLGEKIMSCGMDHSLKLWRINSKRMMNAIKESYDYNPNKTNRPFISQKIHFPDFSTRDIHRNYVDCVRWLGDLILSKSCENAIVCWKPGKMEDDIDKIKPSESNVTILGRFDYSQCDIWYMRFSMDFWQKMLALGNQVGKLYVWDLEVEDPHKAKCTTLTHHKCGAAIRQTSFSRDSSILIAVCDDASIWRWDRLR
# Sequence (Q15022 whole entry partner): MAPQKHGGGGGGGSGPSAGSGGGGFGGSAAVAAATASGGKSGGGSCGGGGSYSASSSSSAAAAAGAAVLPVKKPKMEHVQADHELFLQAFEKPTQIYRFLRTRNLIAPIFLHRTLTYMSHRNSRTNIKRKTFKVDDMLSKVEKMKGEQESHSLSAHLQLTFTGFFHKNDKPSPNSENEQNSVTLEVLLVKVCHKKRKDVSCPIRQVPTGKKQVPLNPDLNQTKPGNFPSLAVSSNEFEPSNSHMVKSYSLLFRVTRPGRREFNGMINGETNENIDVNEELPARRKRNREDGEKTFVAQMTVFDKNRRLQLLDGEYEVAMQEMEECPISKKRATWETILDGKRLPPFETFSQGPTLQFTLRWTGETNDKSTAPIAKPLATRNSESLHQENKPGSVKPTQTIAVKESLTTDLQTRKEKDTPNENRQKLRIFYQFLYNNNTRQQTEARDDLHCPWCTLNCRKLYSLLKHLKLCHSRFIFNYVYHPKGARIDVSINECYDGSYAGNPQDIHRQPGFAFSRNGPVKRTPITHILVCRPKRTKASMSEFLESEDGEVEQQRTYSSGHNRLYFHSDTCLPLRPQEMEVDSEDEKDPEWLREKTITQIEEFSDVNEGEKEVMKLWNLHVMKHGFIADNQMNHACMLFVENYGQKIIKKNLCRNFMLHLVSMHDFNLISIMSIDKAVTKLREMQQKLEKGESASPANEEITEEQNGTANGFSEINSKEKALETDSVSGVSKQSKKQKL
# Sequence (Q09028 whole entry partner): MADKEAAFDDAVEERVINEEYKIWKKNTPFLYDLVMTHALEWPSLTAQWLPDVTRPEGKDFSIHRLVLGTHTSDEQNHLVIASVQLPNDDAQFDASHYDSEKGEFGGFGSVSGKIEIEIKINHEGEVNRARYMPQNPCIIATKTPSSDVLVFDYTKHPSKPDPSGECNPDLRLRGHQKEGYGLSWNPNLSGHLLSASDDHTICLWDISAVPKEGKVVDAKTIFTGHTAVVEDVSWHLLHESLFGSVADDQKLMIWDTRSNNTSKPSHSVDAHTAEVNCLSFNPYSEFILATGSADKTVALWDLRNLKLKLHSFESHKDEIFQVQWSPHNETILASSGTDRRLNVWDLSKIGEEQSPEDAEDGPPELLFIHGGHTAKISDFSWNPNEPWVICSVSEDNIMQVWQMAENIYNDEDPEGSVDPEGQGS
# ASSAY NOTES: PRC2 enzyme assay on peptide substrate, Y641 mutant EZH2
pIC50: −log10 of the molar value.
Answer each item with its documented pIC50.

Consider the following illustrative entries.
COMPOUND	pIC50
Cc1cc(C(C)Oc2ccccc2)ccc1C(=O)NCc1c(C)n(C)[nH]c1=O (stereo not shown)	< 4.30
Cc1cc(=O)c(CNC(=O)c2cc(Cl)c(C(C)Oc3ccccc3)cc2C)c(C)[nH]1 (stereo not shown)	5.00 to 6.00
CCC(C)n1cc(C)c2c(C(=O)NCc3c(OC)nn(CC)c3C)cc(-c3ccc(N4CCNCC4)nc3)cc21 (stereo not shown)	5.00 to 6.00

Could you tell me pIC50 for each of these compounds? They are listed below.
1. COc1nn(C)c(C)c1CNC(=O)c1cc(Cl)c(C(C)Oc2ccccc2)cc1C (stereo not shown)
2. Cc1c(CNC(=O)c2ccc(C(C)Oc3ccccc3)c(Cl)c2)c(=O)[nH]n1C (stereo not shown)
3. CCC(C)n1cc(C)c2c(C(=O)NCc3c(C)[nH]c(C)cc3=O)cc(-c3ccc(N4CCNCC4)nc3)cc21 (stereo not shown)
4. Cc1c(CNC(=O)c2ccc(Oc3cccc(-c4ccnnc4)c3C#N)c(Cl)c2)c(=O)[nH]n1C
5. CCN(c1cc(-c2ccc(OCCOC)cc2)cc(C(=O)NC2CC(C)(C)NC(C)(C)C2)c1C)C1CCOCC1

["< 4.30", "< 4.30", "> 7.00", "4.30 to 5.00", "< 4.30"]

Could you tell me pIC50 for each of these compounds? They are listed below.
1. CCC(C)n1cc(C)c2c(C(=O)NCc3c(C)n(C)[nH]c3=O)cc(-c3ccc(N4CCNCC4)nc3)cc21 (stereo not shown)
2. COc1nn(C)c(C)c1CNC(=O)c1ccc(Oc2cccc(-c3ccnnc3)c2C#N)c(Cl)c1
3. COc1c(CNC(=O)c2ccc(C(C)Oc3ccccc3)c(Cl)c2)c(C)nn1C (stereo not shown)
4. Cc1cc(C)c(CNC(=O)c2ccc(C(C)Oc3ccccc3)cc2C)c(=O)[nH]1 (stereo not shown)

1: 5.00 to 6.00; 2: < 4.30; 3: < 4.30; 4: 6.00 to 7.00

Could you tell me pIC50 for each of these compounds? They are listed below.
1. CCN(c1cc(-c2ccc(OCCOC)cc2)cc(C(=O)NC2CC(C)(C)NC(C)(C)C2)c1C)[C@H]1CC[C@H](N(C)C)CC1
2. Cc1cc(C)c(CNC(=O)c2cc(Cl)c(C(C)Oc3ccccc3)cc2C)c(=O)[nH]1 (stereo not shown)
3. CCC(C)n1cc(C)c2c(C(=O)NCc3c(OC)nn(C)c3C)cc(-c3ccc(N4CCNCC4)nc3)cc21 (stereo not shown)
4. COc1c(CNC(=O)c2ccc(C(C)Oc3ccccc3)cc2C)c(C)nn1C (stereo not shown)

1: 4.30 to 5.00; 2: > 7.00; 3: 6.00 to 7.00; 4: < 4.30

====

# TARGET ENTITY: Y641 mutant PRC2 enzyme (EZH2 Y641) (Homo sapiens, UniProt Q15910, Y641F)
# ASSAY NOTES: PRC2 enzyme assay on peptide substrate, Y641 mutant EZH2
pIC50: −log10 of the molar value.
QUANTITY KIND: pIC50

Consider the following illustrative entries.
COMPOUND	QUANTITY KIND	RESULT
Cc1cc(C(C)Oc2ccccc2)c(Cl)cc1C(=O)NCc1c(C)n(C)[nH]c1=O (centres unmarked)	pIC50	4.30 to 5.00
Cc1cc(=O)c(CNC(=O)c2ccc(C(C)Oc3ccccc3)cc2C)c(C)[nH]1 (centres unmarked)	pIC50	4.30 to 5.00
COc1nn(C)c(C)c1CNC(=O)c1cc(Cl)c(Oc2cccc(-c3ccnnc3)c2C#N)cc1C	pIC50	< 4.30
Cc1cc(=O)c(CNC(=O)c2ccc(Oc3cccc(-c4ccnnc4)c3C#N)c(Cl)c2)c(C)[nH]1	pIC50	5.00 to 6.00
Cc1[nH]n(C)c(=O)c1CNC(=O)c1ccc(C(C)Oc2ccccc2)c(Cl)c1 (centres unmarked)	pIC50	< 4.30

Could you tell me pIC50 for each of these compounds? They are listed below.
1. CCN(c1cc(Cl)cc(C(=O)NC2CC(C)(C)NC(C)(C)C2)c1C)[C@H]1CC[C@H](N(C)CCOC)CC1
2. CCN(c1cc(Cl)cc(C(=O)NC2CC(C)(C)NC(C)(C)C2)c1C)[C@H]1CC[C@H](N(C)C)CC1
3. Cc1cc(Oc2cccc(-c3ccnnc3)c2C#N)c(Cl)cc1C(=O)NCc1c(C)n(C)[nH]c1=O

["< 4.30", "< 4.30", "5.00 to 6.00"]

====

# TARGET ENTITY: wild-type PRC2 enzyme (EZH2 WT) (Homo sapiens, UniProt Q15910)
# Sequence (Q15910 whole entry): as the sequence (Q15910 whole entry Y641F) above, with F641Y counted along it
# Sequence (O75530 whole entry partner): as the sequence (O75530 whole entry partner) above
# Sequence (Q15022 whole entry partner): as the sequence (Q15022 whole entry partner) above
# Sequence (Q09028 whole entry partner): as the sequence (Q09028 whole entry partner) above
# ASSAY NOTES: PRC2 enzyme assay on peptide substrate, wild-type EZH2
QUANTITY KIND: IC50

Consider the following illustrative entries.
COMPOUND	RESULT
CCC(C)n1cc(C)c2c(C(=O)NCc3c(OC)nn(C)c3C)cc(-c3ccc(N4CCNCC4)nc3)cc21 (centres unmarked) [compound 27]	1 to 10 µM
CCN(c1cc(Cl)cc(C(=O)NC2CC(C)(C)NC(C)(C)C2)c1C)[C@H]1CC[C@H](N(C)CCOC)CC1 [compound 32]	> 50 µM
COc1nn(C)c(C)c1CNC(=O)c1ccc(Oc2cccc(-c3ccnnc3)c2C#N)c(Cl)c1 [compound 14]	> 50 µM

Could you tell me IC50 for each of these compounds? They are listed below.
1. Cc1cc(C(C)Oc2ccccc2)c(Cl)cc1C(=O)NCc1c(C)n(C)[nH]c1=O (centres unmarked) [compound 10]
2. Cc1c(CNC(=O)c2ccc(C(C)Oc3ccccc3)c(Cl)c2)c(=O)[nH]n1C (centres unmarked) [compound 4]
3. Cc1cc(C(C)Oc2ccccc2)ccc1C(=O)NCc1c(C)n(C)[nH]c1=O (centres unmarked) [compound 8]
4. CCC(C)n1cc(C)c2c(C(=O)NCc3c(OC)nn(CC)c3C)cc(-c3ccc(N4CCNCC4)nc3)cc21 (centres unmarked) [compound 29]

10 to 50 µM
> 50 µM
> 50 µM
1 to 10 µM

Which IC50 is listed for COc1nn(C)c(C)c1CNC(=O)c1cc(Cl)c(C(C)Oc2ccccc2)cc1C (centres unmarked) [compound 9] ?
> 50 µM
